# systemName: recombinant human KIF18A (Homo sapiens)
# Construct: purchased GenScript
# Sequence (Q8NI77 whole entry): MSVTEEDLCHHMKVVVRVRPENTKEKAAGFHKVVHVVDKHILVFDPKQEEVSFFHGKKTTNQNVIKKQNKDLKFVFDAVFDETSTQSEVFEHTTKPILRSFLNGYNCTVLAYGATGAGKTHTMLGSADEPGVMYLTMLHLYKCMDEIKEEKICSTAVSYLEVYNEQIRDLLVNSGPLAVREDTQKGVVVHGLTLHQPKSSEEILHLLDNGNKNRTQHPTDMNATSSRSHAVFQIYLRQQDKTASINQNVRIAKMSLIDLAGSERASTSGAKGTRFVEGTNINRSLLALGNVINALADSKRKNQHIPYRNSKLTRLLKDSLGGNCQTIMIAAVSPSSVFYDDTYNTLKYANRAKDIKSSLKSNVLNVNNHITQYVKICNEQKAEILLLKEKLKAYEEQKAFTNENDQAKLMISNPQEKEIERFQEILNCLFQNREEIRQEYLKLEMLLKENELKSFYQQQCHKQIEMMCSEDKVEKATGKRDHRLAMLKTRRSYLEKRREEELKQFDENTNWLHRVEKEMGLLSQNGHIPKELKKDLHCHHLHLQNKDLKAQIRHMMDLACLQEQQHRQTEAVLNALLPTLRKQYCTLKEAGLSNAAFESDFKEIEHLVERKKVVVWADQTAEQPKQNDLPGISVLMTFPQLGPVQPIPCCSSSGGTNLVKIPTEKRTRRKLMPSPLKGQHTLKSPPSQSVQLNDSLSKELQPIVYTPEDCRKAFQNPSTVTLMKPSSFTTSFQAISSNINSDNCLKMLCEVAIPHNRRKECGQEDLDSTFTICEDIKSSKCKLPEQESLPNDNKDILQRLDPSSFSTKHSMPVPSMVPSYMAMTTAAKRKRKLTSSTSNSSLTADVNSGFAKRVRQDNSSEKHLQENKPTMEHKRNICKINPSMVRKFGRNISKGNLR
# Sequence (P68363 whole entry partner): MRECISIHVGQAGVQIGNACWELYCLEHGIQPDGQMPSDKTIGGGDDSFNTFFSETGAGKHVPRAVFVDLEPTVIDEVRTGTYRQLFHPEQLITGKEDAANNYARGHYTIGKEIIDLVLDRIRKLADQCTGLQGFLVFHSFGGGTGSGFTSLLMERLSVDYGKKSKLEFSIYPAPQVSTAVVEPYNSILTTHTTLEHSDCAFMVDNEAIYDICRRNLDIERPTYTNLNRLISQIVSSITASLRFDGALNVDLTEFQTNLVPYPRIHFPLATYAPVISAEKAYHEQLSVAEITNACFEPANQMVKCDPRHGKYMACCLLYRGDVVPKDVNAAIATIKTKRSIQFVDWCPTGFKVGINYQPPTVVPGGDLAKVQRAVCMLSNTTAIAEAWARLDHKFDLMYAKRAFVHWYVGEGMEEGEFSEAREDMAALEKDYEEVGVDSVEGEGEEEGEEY
# Sequence (Q9BVA1 whole entry partner): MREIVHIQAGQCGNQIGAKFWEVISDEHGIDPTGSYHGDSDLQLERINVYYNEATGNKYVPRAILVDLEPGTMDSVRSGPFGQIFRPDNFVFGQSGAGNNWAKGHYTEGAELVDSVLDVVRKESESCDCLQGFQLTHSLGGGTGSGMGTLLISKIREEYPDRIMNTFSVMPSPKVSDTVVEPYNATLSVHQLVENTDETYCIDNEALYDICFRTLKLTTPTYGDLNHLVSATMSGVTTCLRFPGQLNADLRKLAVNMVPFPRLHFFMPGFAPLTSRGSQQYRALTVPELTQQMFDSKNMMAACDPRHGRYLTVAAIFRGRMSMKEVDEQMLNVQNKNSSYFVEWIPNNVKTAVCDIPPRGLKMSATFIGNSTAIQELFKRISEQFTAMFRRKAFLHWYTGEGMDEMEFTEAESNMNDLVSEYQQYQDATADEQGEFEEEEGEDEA
# assayMethodText: Inhibition of KIF18A enzyme activity (ADP-Glo assay)
# Assay type: biochemical
# assayConditions: recombinant human KIF18A 100 nM, ATP 60 µM, tubulin, paclitaxel; read-out: IC50
pIC50: −log10 of the molar value.
readout: pIC50

{"columns": ["smilesNotation", "readout", "recordedValue"],
 "data": [
  ["CCS(=O)(=O)Nc1ccc(C(=O)Nc2ccc(-n3ncnn3)c(N3CCC(F)(F)CC3)c2)c(N2CCC3(CC2)CC3)c1", "pIC50", 7.10],
  ["O=C(Nc1ccc(-c2ncccn2)c(N2CCC(F)(F)CC2)c1)c1ccc(NS(=O)(=O)C2CC2)cc1N1CCC2(CC1)CC2", "pIC50", 6.92],
  ["O=C(Nc1ccc(-c2ccnnc2)c(N2CCC(F)(F)CC2)c1)c1ccc(NS(=O)(=O)C2CC2)cc1N1CCC2(CC1)CC2", "pIC50", 6.83],
  ["O=C(Nc1ccc(-c2nnco2)c(N2CCC(F)(F)CC2)c1)c1ccc(NS(=O)(=O)C2CC2)cc1N1CCC2(CC1)CC2", "pIC50", 6.81],
  ["CCS(=O)(=O)Nc1ccc(C(=O)Nc2ccc(-n3ccnn3)c(C3CCC(F)(F)CC3)c2)c(N2CCC3(CC2)CC3)c1", "pIC50", 6.87],
  ["CCS(=O)(=O)Nc1ccc(C(=O)Nc2ccc(-c3ncn(C)n3)c(OC3CC(F)(F)C3)c2)c(N2CCC3(CC2)CC3)c1", "pIC50", 6.99]
]}
